Assay: Cytotoxicity against human […] cells assessed as reduction in cell viability incubated for 72 hrs by MTT assay
Assay type: functional, cell-based
Endpoint: IC50 (µM)
Write it as a number; the unit µM goes unstated.

Lab note: "COc1cc(/C=C/C(=O)/C=C(O)/C=C/c2ccc(O)cc2)ccc1O" gave IC50 of 17.3

###

Tested on: A549
Assay: Cytotoxicity against human A549 cells assessed as reduction in cell viability incubated for 72 hrs by MTT assay
Format: functional, cell-based
Details: A549, 72 h
Endpoint: pIC50
pIC50 is a log-scale quantity: -log10 of the concentration expressed in molar.

Lab note: COc1cc(/C=C/C(=O)CC(=O)/C=C/c2ccc(O)c(OC)c2)ccc1O [CURCUMIN] gave pIC50 of 4.62

Lab note: "COc1cc(/C=C/C(=O)/C=C(O)/C=C/c2ccc(O)cc2)ccc1O" gave pIC50 of 5.25
